The origin of these recorded values is the supplement of paper PMC9942566.

Reported PosmB-lux reporter fold induction values for a set of compounds
Test system: Serratia marcescens K904 PosmB-luxCDABE reporter (pMQ747)
Assay: PosmB-lux reporter fold induction (RLU/OD600 relative to no-compound control), highest over Biolog concentrations; higher = stronger reporter activation
Conditions: ΔrcsB mutant CMS5177; 4 h
Counter-ions that a name gives are not always drawn.
measure.name: PosmB-lux reporter fold induction

>  <compound>
O=C1CN(/N=C/c2ccc([N+](=O)[O-])o2)C(=O)N1 [Nitrofurantoin] (Biolog plate: PM14, well positions: E5-8)

>  <measured.value>
1.19

$$$$
>  <compound>
OC(CCN1CCCCC1)(c1ccccc1)c1ccccc1 [pridinol] (Biolog plate: PM20, well positions: F9-12)

>  <measured.value>
1.5

$$$$
>  <compound>
N=C(N)N [Guanidine hydrochloride] (Biolog plate: PM15, well positions: A5-8)

>  <measured.value>
2.09

$$$$
>  <compound>
CN[C@@H]1[C@@H](O[C@H]2O[C@H](CO)[C@@H](N)[C@H](O)[C@H]2O)OC2C[C@@H](N)[C@@H](O[C@H]3[C@H](O)[C@@H](O)[C@H](N)C[C@@H]3N)OC2[C@@H]1O (stereo partly specified) [apramycin] (Biolog plate: PM20, well positions: A5-8)

>  <measured.value>
1.48

$$$$
>  <compound>
Nc1c2ccccc2nc2ccccc12 [9-Aminoacridine] (Biolog plate: PM14, well positions: B1-4)

>  <measured.value>
1.19

$$$$
>  <compound>
CN[C@@H]1[C@H](O)[C@H](NC)[C@H]2O[C@@]3(O)C(=O)C[C@@H](C)O[C@H]3O[C@@H]2[C@H]1O [Spectinomycin] (Biolog plate: PM12, well positions: G1-4)

>  <measured.value>
1.6

$$$$

====

Test system: Serratia marcescens K904 PosmB-luxCDABE reporter (pMQ747)
Assay: PosmB-lux reporter fold induction (RLU/OD600 relative to no-compound control), highest over Biolog concentrations; higher = stronger reporter activation
Details: ΔrcsB mutant CMS5177; 4 h

>  <compound>
Cn1cnc([N+](=O)[O-])c1Sc1ncnc2[nH]cnc12 [azathioprine] (Biolog plate: PM18, well positions: B9-12)

>  <PosmB-lux reporter fold induction>
0.729

$$$$
>  <compound>
NC[C@H]1O[C@H](O[C@H]2[C@H](O)[C@@H](O[C@H]3O[C@H](CO)[C@@H](O)[C@H](N)[C@H]3O)[C@H](N)C[C@@H]2N)[C@H](N)C[C@@H]1O [Tobramycin] (Biolog plate: PM12, well positions: F1-4)

>  <PosmB-lux reporter fold induction>
1.52

$$$$
>  <compound>
NCC[C@H](O)C(=O)N[C@@H]1C[C@H](N)[C@@H](O[C@H]2O[C@H](CN)[C@@H](O)[C@H](O)[C@H]2O)[C@H](O)[C@H]1O[C@H]1O[C@H](CO)[C@@H](O)[C@H](N)[C@H]1O [Amikacin] (Biolog plate: PM11, well positions: A2-4)

>  <PosmB-lux reporter fold induction>
1

$$$$
>  <compound>
C[n+]1c2cc(N)ccc2cc2ccc(N)cc21.Nc1ccc2cc3ccc(N)cc3nc2c1 [Acriflavine] (Biolog plate: PM14, well positions: A2-4)

>  <PosmB-lux reporter fold induction>
2.05

$$$$
>  <compound>
C[C@@H]1NC(=O)[C@@H](N)CNC(=O)[C@H](C2CCNC(=N)N2)NC(=O)/C(=C/NC(N)=O)NC(=O)[C@H](CNC(=O)CC(N)CCCN)NC1=O.N=C1NCC[C@H]([C@@H]2NC(=O)/C(=C/NC(N)=O)NC(=O)[C@H](CNC(=O)C[C@@H](N)CCCN)NC(=O)[C@H](CO)NC(=O)[C@@H](N)CNC2=O)N1 [Capreomycin] (Biolog plate: PM11, well positions: D1-4)

>  <PosmB-lux reporter fold induction>
1.09

$$$$
>  <compound>
NC[C@@H]1O[C@H](O[C@H]2[C@@H](O)[C@H](O[C@@H]3[C@@H](O)[C@H](N)C[C@H](N)[C@H]3O[C@H]3O[C@H](CO)[C@@H](O)[C@H](O)[C@H]3N)O[C@@H]2CO)[C@H](N)[C@@H](O)[C@@H]1O [Paromomycin] (Biolog plate: PM12, well positions: C1-4)

>  <PosmB-lux reporter fold induction>
1.42

$$$$
>  <compound>
CO[C@H]1C[C@H](O[C@H]2[C@H](C)[C@@H](O[C@@H]3O[C@H](C)C[C@H](N(C)C)[C@H]3O)[C@@H](C)C[C@@]3(CO3)C(=O)[C@H](C)[C@@H](O)[C@@H](C)[C@@H](C)OC(=O)[C@@H]2C)O[C@@H](C)[C@@H]1O [Oleandomycin] (Biolog plate: PM15, well positions: F5-8)

>  <PosmB-lux reporter fold induction>
2.18

$$$$
>  <compound>
[Cl][Fe]([Cl])[Cl] [ferric chloride] (Biolog plate: PM16, well positions: G5-8)

>  <PosmB-lux reporter fold induction>
1.47

$$$$
>  <compound>
CC(CN1c2ccccc2Sc2ccccc21)N(C)C (centres undefined) [Promethazine] (Biolog plate: PM14, well positions: H5-8)

>  <PosmB-lux reporter fold induction>
1.43

$$$$

====

Test system: Serratia marcescens K904 PosmB-luxCDABE reporter (pMQ747)
Assay: PosmB-lux reporter fold induction (RLU/OD600 relative to no-compound control), highest over Biolog concentrations; higher = stronger Rcs reporter activation
Conditions: wild type K904; 4 h
Reported PosmB-lux reporter fold induction values for a set of compounds

>  <compound>
O=C(O)/C=C/c1ccccc1 [cinnamic acid] (Biolog plate: PM19, well positions: C9-12)

>  <PosmB-lux reporter fold induction>
9.92

$$$$
>  <compound>
Nc1ccc(S(=O)(=O)Nc2ncccn2)cc1 [Sulfadiazine] (Biolog plate: PM12, well positions: E5-8)

>  <PosmB-lux reporter fold induction>
2.21

$$$$
>  <compound>
O.O=S(=O)([O-])[O-].O=S(=O)([O-])[O-].O=S(=O)([O-])[O-].[Al+3].[Al+3] [aluminum sulfate] (Biolog plate: PM16, well positions: F9-12)

>  <PosmB-lux reporter fold induction>
1.33

$$$$
>  <compound>
Cc1onc(-c2ccccc2)c1C(=O)N[C@@H]1C(=O)N2[C@@H]1SC(C)(C)[C@@H]2C(=O)O [Oxacillin] (Biolog plate: PM12, well positions: B1-4)

>  <PosmB-lux reporter fold induction>
2.16

$$$$
>  <compound>
C[C@@H]1NC(=O)[C@@H](N)CNC(=O)[C@H](C2CCNC(=N)N2)NC(=O)/C(=C/NC(N)=O)NC(=O)[C@H](CNC(=O)CC(N)CCCN)NC1=O.N=C1NCC[C@H]([C@@H]2NC(=O)/C(=C/NC(N)=O)NC(=O)[C@H](CNC(=O)C[C@@H](N)CCCN)NC(=O)[C@H](CO)NC(=O)[C@@H](N)CNC2=O)N1 [Capreomycin] (Biolog plate: PM11, well positions: D1-4)

>  <PosmB-lux reporter fold induction>
1.24

$$$$

====

Test system: Serratia marcescens K904 PosmB-luxCDABE reporter (pMQ747)
Test: PosmB-lux reporter fold induction (RLU/OD600 relative to no-compound control), highest over Biolog concentrations; higher = stronger Rcs reporter activation
Settings: wild type K904; 4 h
Reported PosmB-lux reporter fold induction values for a set of compounds

>  <compound>
CO/N=C(\C(=O)N[C@@H]1C(=O)N2C(C(=O)O)=C(CSc3nc(=O)c(O)nn3C)CS[C@H]12)c1csc(N)n1 [Ceftriaxone] (Biolog plate: PM11, well positions: G1-4)

>  <PosmB-lux reporter fold induction>
1.64

$$$$
>  <compound>
COc1ccc(CO)cc1OC [3,4-Dimethoxy-benzyl alcohol] (Biolog plate: PM15, well positions: F1-4)

>  <PosmB-lux reporter fold induction>
2.75

$$$$
>  <compound>
CC(C(=O)O)c1cccc(C(=O)c2ccccc2)c1 (centres undefined) [ketoprofen (an NSAID)] (Biolog plate: PM18, well positions: A2-4)

>  <PosmB-lux reporter fold induction>
1.95

$$$$
>  <compound>
CN[C@@H]1[C@@H](O)[C@@H](O[C@@H]2[C@@H](O)[C@H](O[C@H]3OC(CN)=CC[C@H]3N)[C@@H](N)C[C@H]2N)OC[C@]1(C)O [Sisomicin] (Biolog plate: PM12, well positions: D1-4)

>  <PosmB-lux reporter fold induction>
1.55

$$$$
>  <compound>
C[C@H]1O[C@@H](n2cc(F)c(=O)[nH]c2=O)[C@H](O)[C@@H]1O [5-fluoro-5'-deoxyuridine] (Biolog plate: PM18, well positions: H1-4)

>  <PosmB-lux reporter fold induction>
1.12

$$$$
>  <compound>
CC[C@H]1OC(=O)[C@H](C)[C@@H](O[C@H]2C[C@@](C)(OC)[C@@H](O)[C@H](C)O2)[C@H](C)[C@@H](O[C@@H]2O[C@H](C)C[C@H](N(C)C)[C@H]2O)[C@](C)(O)C[C@@H](C)C(=O)[C@H](C)[C@@H](O)[C@]1(C)O [Erythromycin] (Biolog plate: PM11, well positions: F5-8)

>  <PosmB-lux reporter fold induction>
1.38

$$$$
>  <compound>
[Cl][Fe]([Cl])[Cl] [ferric chloride] (Biolog plate: PM16, well positions: G5-8)

>  <PosmB-lux reporter fold induction>
0.898

$$$$
>  <compound>
CO[C@@H]1[C@@H](OC(N)=O)[C@@H](O)[C@H](Oc2ccc3c(O)c(NC(=O)c4ccc(O)c(CC=C(C)C)c4)c(=O)oc3c2C)OC1(C)C [Novobiocin] (Biolog plate: PM12, well positions: D9-12)

>  <PosmB-lux reporter fold induction>
4.98

$$$$
>  <compound>
CO[C@H]1C[C@H](O[C@H]2[C@H](C)[C@@H](O[C@@H]3O[C@H](C)C[C@H](N(C)C)[C@H]3O)[C@@H](C)C[C@@]3(CO3)C(=O)[C@H](C)[C@@H](O)[C@@H](C)[C@@H](C)OC(=O)[C@@H]2C)O[C@@H](C)[C@@H]1O [Oleandomycin] (Biolog plate: PM15, well positions: F5-8)

>  <PosmB-lux reporter fold induction>
3.29

$$$$
